- target_or_test_system: Gamma-secretase
- assay_notes: Inhibition of gamma secretase expressed in SH-SY5Y cells
pIC50: −log10 of the molar value.
measured_endpoint: pIC50

compound	pIC50
C=CC[C@@H]1CCC[C@](c2cc(F)ccc2F)(S(=O)(=O)c2ccc(Cl)cc2)C1 (relative stereo)	7.36
COC(=O)/C=C/C[C@H]1CCC[C@](c2cc(F)ccc2F)(S(=O)(=O)c2ccc(Cl)cc2)C1 (relative stereo)	6.68
O=C[C@@H]1CCC[C@](c2cc(F)ccc2F)(S(=O)(=O)c2ccc(Cl)cc2)C1 (relative stereo)	7.11
O=C[C@H]1CCC[C@](c2cc(F)ccc2F)(S(=O)(=O)c2ccc(Cl)cc2)C1 (relative stereo)	7.26
C=CC[C@H]1CCC[C@](c2cc(F)ccc2F)(S(=O)(=O)c2ccc(Cl)cc2)C1	7.07
O=C(O)CC[C@@H]1CCC[C@](c2cc(F)ccc2F)(S(=O)(=O)c2ccc(Cl)cc2)C1 (relative stereo)	7.62

(1) COC(=O)CCC[C@@H]1CCC[C@](c2cc(F)ccc2F)(S(=O)(=O)c2ccc(Cl)cc2)C1 (relative stereo)
(2) O=S(=O)(c1ccc(Cl)cc1)[C@@]1(c2cc(F)ccc2F)CCC[C@@H](CCCO)C1 (relative stereo)
Prompt line: Returns the identifier with the smallest measured pIC50 among 1 and 2 . Refer to your chosen item by its label in the answer.
Response line: 2
(2: 8.10, 1: 8.52)

(I) O=S(=O)(c1ccc(Cl)cc1)[C@@]1(c2cc(F)ccc2F)CCC[C@H](CCCO)C1 (relative stereo)
(II) O=C(O)CC[C@H]1CCC[C@](c2cc(F)ccc2F)(S(=O)(=O)c2ccc(Cl)cc2)C1 (relative stereo)
Prompt line: Given the two records I and II , choose the one whose pIC50 value is lower. Please reply using the label of the selected record.
Response line: II
(II: 6.42, I: 6.95)

(I) COC(=O)CCC[C@H]1CCC[C@](c2cc(F)ccc2F)(S(=O)(=O)c2ccc(Cl)cc2)C1 (relative stereo)
(II) COC(=O)/C=C/C[C@@H]1CCC[C@](c2cc(F)ccc2F)(S(=O)(=O)c2ccc(Cl)cc2)C1 (relative stereo)
Prompt line: Which gives the smaller pIC50 number: I or II ? Identify your selection by its label.
Response line: I

(A) COC(=O)CCC[C@]1(C)CCC[C@](c2cc(F)ccc2F)(S(=O)(=O)c2ccc(Cl)cc2)C1 (relative stereo)
(B) COC(=O)CCC[C@@]1(C)CCC[C@](c2cc(F)ccc2F)(S(=O)(=O)c2ccc(Cl)cc2)C1 (relative stereo)
Prompt line: Could you tell me which of these two has the smaller pIC50 figure? First: A Second: B Give the label under which the chosen entry appears.
Response line: B
(B: 5.79, A: 8.00)
